Experimental System: FGFR1 (UniProt P11362)
Sequence (P11362 whole entry, looked up): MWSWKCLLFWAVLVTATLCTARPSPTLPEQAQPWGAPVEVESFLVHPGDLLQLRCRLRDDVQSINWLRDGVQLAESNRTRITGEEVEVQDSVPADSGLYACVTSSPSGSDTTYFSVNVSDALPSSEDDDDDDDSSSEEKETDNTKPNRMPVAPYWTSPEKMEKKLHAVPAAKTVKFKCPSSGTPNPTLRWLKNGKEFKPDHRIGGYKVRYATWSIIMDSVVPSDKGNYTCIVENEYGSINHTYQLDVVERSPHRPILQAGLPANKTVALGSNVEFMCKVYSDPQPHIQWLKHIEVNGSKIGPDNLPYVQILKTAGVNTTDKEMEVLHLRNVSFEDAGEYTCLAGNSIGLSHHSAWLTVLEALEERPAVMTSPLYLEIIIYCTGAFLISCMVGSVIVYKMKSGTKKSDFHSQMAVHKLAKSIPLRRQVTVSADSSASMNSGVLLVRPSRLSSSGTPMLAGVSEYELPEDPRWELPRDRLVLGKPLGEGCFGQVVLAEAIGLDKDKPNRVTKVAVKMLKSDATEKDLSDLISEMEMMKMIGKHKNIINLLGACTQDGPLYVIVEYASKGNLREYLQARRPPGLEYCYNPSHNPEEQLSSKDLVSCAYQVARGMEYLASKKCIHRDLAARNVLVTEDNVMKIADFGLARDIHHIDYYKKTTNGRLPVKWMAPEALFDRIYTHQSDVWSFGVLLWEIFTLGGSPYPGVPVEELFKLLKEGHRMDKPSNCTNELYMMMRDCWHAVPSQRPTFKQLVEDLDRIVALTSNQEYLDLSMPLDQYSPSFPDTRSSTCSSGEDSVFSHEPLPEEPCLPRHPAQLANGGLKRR
Test Description: phosphorylation enrichment, bacterial display (enrichment ratio); higher = better substrate or ligand; peptides without Tyr show the background;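 note: 11-residue human phosphosite peptides and single-mutation variants displayed on the E. coli surface, counted by deep sequencing, each peptide's frequency after selection divided by its frequency in the unselected input library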;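 note: frequency after pTyr selection over input frequency; kinase dosed for 20-30% of maximal phosphorylation in three min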
Measurement Name: phosphorylation enrichment

- FEAMEYLESKQ [BTK_Y511_C506Y_YF]: 0.527
- DYYDLYGGEKK [PTPN11_Y66_F71K]: 15.8
- QLDQHYLLVPE [DDX49_Y223_R222H]: 1.6
- SQPASYQRRFL [PPIG_Y320_L324F]: 0.472
- IHETTYNSIMK [ACTA1_Y281]: 0.384
- VMIYAYLLHRG [PTEN_Y138_C136Y]: 0.351
- DVCKKYAEAKD [ALB_Y343_N342K]: 0.627
- CTTSHYNFMCN [TP53_Y234_I232S_YF]: 0.509
- FAKTQYPDVFA [CRX_Y63_YF]: 0.454
- LDPMVYMNDKS [PTK2B_Y834]: 0.727
- FKDGQYWIRGW [ACSF3_Y466_R471W]: 0.609
- AGADGYDYLAP [FOXL2_Y186_G187D]: 0.611
- RENGPYYASYP [GDAP2_Y487_T489A]: 2.29
- QGQHWYSSSDK [CASP10_Y9]: 0.665

----------
Experimental System: FGFR1 (UniProt P11362)
Test Description: phosphorylation enrichment, bacterial display (enrichment ratio); higher = better substrate or ligand; peptides without Tyr show the background
// reported phosphorylation enrichment for each item listed
Measurement Name: phosphorylation enrichment

* KEELAYLKKNH [KRT14_Y248] | 0.451
* IENKLYGTSDP [RET_Y1062_M1064T] | 0.527
* DDKQPYEKKAE [HMGB1_Y144_A149E] | 0.529
* HLITAYRAHGF [PDHA1_Y118] | 0.701
* FHKALYTVRTY [PDE6C_Y266_S270T] | 0.655
* RHRSGYVLIAM [EFR3A_Y73] | 0.737
* DSGKLYALDGL [INO80_Y1104_V1108G] | 0.581
* KVMANYVFKAG [MAML2_Y513_M514V_YF] | 0.459
* PLDGEYFTLHI [TP53_Y327_Q331H] | 5.77
* APSGNYVACGG [GNB1_Y111] | 0.478
* RRSKMYLKTRS [LPL_Y329_S325R] | 0.599
* GFAIVYGTIIL [GPR179_Y460] | 0.441
* METKGYQSLPE [NR3C2_Y6_H7Q] | 0.449
* PTTKSYFPHFD [HBA1_Y43_T42S] | 1.38
* DGKFSYLKVGH [GRM3_Y480_G475D_YF] | 0.467
* ESMLRYDVFGG [STOX1_Y607_E608D_YF] | 0.508
* YEREQYADRTR [RBM4_Y355_A359T] | 0.566
* KPIETYFSKNF [PLP1_Y50_L46P_YF] | 0.417
* LINLKYSVEEE [PCDH19_Y27] | 0.525
* QELRRYLESGV [MICA_Y194_K196E] | 0.62
* VEDPEYAVTQL [STOML2_Y124] | 0.477
* HRTLVYGGIFL [FBP1_Y259] | 0.704
* YETVKYINNER [ABCB7_Y345_F346I] | 1.22
* ATHSRYRLNDF [CLDN14_Y233_G232R_YF] | 0.307
* EKIANYKEGTY [CLRN1_Y171] | 0.45
* SIKDKYVTVLY [KCNH2_Y611_A614V] | 0.68
* SVTCTYSPALT [TP53_Y126_N131T] | 0.524
* DFLSSYSAVNQ [OAT_Y85] | 0.433
* SQAPGYSFTAA [CYCS_Y47_G42S_YF] | 0.417
